The following compounds are shown together with reported inhibition values.
- Assay Summary: blockers of RIG-like receptor reporter activation – cell-based, Sendai virus stimulus, luciferase, 10K MLSCN set, TLR/RLR signaling modifier project, primary screen (AID 602276);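 note: firefly luciferase from ISG56 promoter only with Renilla not read in this screen; 0% = Sendai virus plus DMSO and 100% = medium plus DMSO without virus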
- Assay Conditions: HEK293 RL24 IRF3 luciferase reporter, at 10 µM, active compounds read high
Active and inactive are the calls of the source.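 Rule for the calls: active = inhibition at or above 50% at 10 µM; inactive = inhibition below 50%.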

{"Compound": "COc1ccc(Cl)cc1C(=O)n1nc(C)cc1C", "inhibition": "-16.7% (inactive)"}
{"Compound": "COc1ccc(CCNS(=O)(=O)c2ccc3c(c2)CCN3C(=O)CCC(=O)O)cc1OC", "inhibition": "12.6% (inactive)"}
{"Compound": "Cn1c(CCCNC(=O)c2ccccc2)nc2ccccc21", "inhibition": "13.2% (inactive)"}
{"Compound": "CCCn1c(=N)n(CCOc2ccc(OC)cc2)c2ccccc21", "inhibition": "20.2% (inactive)"}
{"Compound": "O=C(C1CCC1)N1CCc2cc(S(=O)(=O)Nc3ccc4c(c3)OCO4)ccc21", "inhibition": "7.48% (inactive)"}
{"Compound": "CCOC(=O)N1CCN(S(=O)(=O)c2cc(Cl)c(OC)cc2Cl)CC1", "inhibition": "-2.67% (inactive)"}
{"Compound": "COc1ccc(C2C3=C(CC(C)(C)CC3=O)Oc3ncn4nc(-c5cccnc5)nc4c32)cc1 (configuration not stated)", "inhibition": "-0.431% (inactive)"}
{"Compound": "C[C@H]1C[C@H]2[C@@H]3CCC4=CC(=O)C=C[C@]4(C)[C@@]3(Cl)[C@@H](O)C[C@]2(C)[C@@]1(O)C(=O)CO", "inhibition": "8.02% (inactive)"}
{"Compound": "Cc1ccc(C(C)C)c(OCc2nnc(SCC(=O)Nc3ncc(C)s3)n2C)c1", "inhibition": "9.43% (inactive)"}
{"Compound": "O=C1NC(=O)C(c2ccccc2)(c2ccccc2)N1", "inhibition": "-7.98% (inactive)"}
{"Compound": "O=C1CC(c2ccc(Cl)cc2)n2nc(N3C(=O)c4ccccc4C3=O)nc2N1 (configuration not stated)", "inhibition": "16.6% (inactive)"}
{"Compound": "CC(=O)N1CCc2cc(S(=O)(=O)NC(C(=O)NCc3ccccc3)C(C)C)ccc21 (configuration not stated)", "inhibition": "10.6% (inactive)"}
{"Compound": "Cc1ccc(S(=O)(=O)N2CCN(C(=O)CN3C(=O)NC4(CCOc5ccccc54)C3=O)CC2)cc1 (configuration not stated)", "inhibition": "-12.9% (inactive)"}
{"Compound": "O=C(OCC(=O)c1c[nH]c2ccccc12)C1=COCCO1", "inhibition": "-19.9% (inactive)"}
{"Compound": "Cc1cc(C)c2c(n1)sc1c(N3CCOCC3)ncnc12", "inhibition": "5.74% (inactive)"}
{"Compound": "CSc1ccccc1C(=O)NC1CC2CCC1C2 (configuration not stated)", "inhibition": "24.1% (inactive)"}
{"Compound": "CC(=O)Nc1c(Cl)n(C(C)=O)c2ccccc12", "inhibition": "27.6% (inactive)"}
{"Compound": "CC(C)Oc1ccc(C2C(C(=O)c3ccco3)=C(O)C(=O)N2CCCN(C)C)cc1 (configuration not stated)", "inhibition": "13.1% (inactive)"}
{"Compound": "CN(C(=O)c1ccncc1)C1CC(C)(C)N(O)C(C)(C)C1", "inhibition": "-0.539% (inactive)"}
{"Compound": "Cc1ccc(CNC(=O)CCCn2c(=O)c3ccccc3n(CC(=O)NCc3ccco3)c2=O)cc1", "inhibition": "-6.73% (inactive)"}
{"Compound": "CCCOc1ccc2nc(NC(=O)OC)[nH]c2c1", "inhibition": "25.2% (inactive)"}
{"Compound": "Cc1ccc(F)cc1NC(=O)Cc1nn(C)c(=O)c2ccccc12", "inhibition": "7.41% (inactive)"}
